Documented Mild adverse effect (Lowest dose first showed Lethargy) across a set of compounds
# ASSAY_INFO: Therapeutic index (NOAEL/NOEL): paleness, lethargy, ataxia observation in Sprague-Dawley rats (Example 7)
# Type: in vivo
# SETUP_CONDITIONS: rat, in vivo, sc
# Experimental: As used herein, the term “therapeutic index” (TI; also referred to as therapeutic ratio) is a quantitative measure of the relative safety of a drug. […] In rats, peripheral vasoconstriction is determined by a side-by-side comparison of ear paleness in treated subjects (e.g., Sprague Dawley rats, a white rat with easily visualizable changes in redness/paleness) vs. untreated control subjects. […]
Where a SMILES comes first, the peptide text is derived from it. Bridges are numbered along the chain shown (N, C = ends). [ ]: non-standard residue; d: D form. Aad = N[C@@H](CCCC(=O)O)C(=O)O; Dab = NCC[C@H](N)C(=O)O; Mpa = O=C(O)CCS
Numbers only here, please. The scale is mg/kg.

Worked examples, 2 compounds total:
COMPOUND | QUANTITATIVE_READOUT
CC(=O)NCCCC[C@H](NC(=O)[C@@H]1CCCN1C(=O)[C@@H]1CSSCCC(=O)N[C@@H](Cc2ccc(O)cc2)C(=O)N[C@@H](Cc2ccccc2)C(=O)N[C@@H](CCCC(N)=O)C(=O)N[C@@H](CC(N)=O)C(=O)N1)C(=O)NCC(N)=O | 1
NCCCC[C@H](NC(=O)[C@@H]1CCCN1C(=O)[C@@H]1CSSCCC(=O)N[C@@H](Cc2ccc(O)cc2)C(=O)N[C@@H](Cc2ccccc2)C(=O)N[C@@H](CCC(N)=O)C(=O)N[C@@H](CC(N)=O)C(=O)N1)C(=O)NCC(N)=O | 0.03

Data point: NCC[C@H](NC(=O)[C@@H]1CCCN1C(=O)[C@@H]1CSSCCC(=O)N[C@@H](Cc2ccc(O)cc2)C(=O)N[C@@H](Cc2ccccc2)C(=O)N[C@@H](CCCC(N)=O)C(=O)N[C@@H](CC(N)=O)C(=O)N1)C(=O)NCC(N)=O [SEQ ID NO. 31, Mpa-Tyr-Phe-Hgn-Asn-Cys-Pro-Dab-Gly-NH2] ([Mpa]YF[Aad](NH2)NCP[Dab]G-NH2; disulfide 1-6) ; Mild adverse effect (Lowest dose first showed Lethargy) = 0.015

Data point: "NCC(=O)NCC(=O)NCC(=O)NCC(=O)NCC(=O)NCC(=O)NCCCC[C@H](NC(=O)[C@@H]1CCCN1C(=O)[C@@H]1CSSCCC(=O)N[C@@H](Cc2ccc(O)cc2)C(=O)N[C@@H](Cc2ccccc2)C(=O)N[C@@H](CCC(N)=O)C(=O)N[C@@H](CC(N)=O)C(=O)N1)C(=O)NCC(N)=O" ; Mild adverse effect (Lowest dose first showed Lethargy) = 0.5
